// data source = paper PMC5706701

tested.target: Human IP6K1 (Homo sapiens)
Construct: GST (N, cleaved yes); made in house; host or cells: C43 E. coli, pGEX-6P-2
Sequence (Q92551 whole entry): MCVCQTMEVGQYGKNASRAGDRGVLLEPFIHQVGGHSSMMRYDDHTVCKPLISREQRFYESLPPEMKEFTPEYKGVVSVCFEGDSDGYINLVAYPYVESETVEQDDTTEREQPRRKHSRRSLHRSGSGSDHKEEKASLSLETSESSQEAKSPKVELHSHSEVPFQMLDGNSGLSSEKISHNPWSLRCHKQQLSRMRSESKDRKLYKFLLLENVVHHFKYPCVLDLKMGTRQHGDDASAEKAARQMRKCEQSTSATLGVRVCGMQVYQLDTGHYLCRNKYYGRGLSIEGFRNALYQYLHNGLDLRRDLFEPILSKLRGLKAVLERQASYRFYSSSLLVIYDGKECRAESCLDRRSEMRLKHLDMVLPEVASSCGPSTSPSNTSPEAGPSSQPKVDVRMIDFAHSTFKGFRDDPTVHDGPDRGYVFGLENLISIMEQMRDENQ
procedure.details: IP6K1 high-throughput screen of the Sigma LOPAC (ADP-Glo Max, single point);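 further: final compound concentration 10µM in 5% DMSO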
Assay type: biochemical
condition.parameters: LOPAC single-point screen, ADP-Glo Max raw signal per well
Counter-ions that a name gives are not always drawn.
reported.property: Raw Signal

                                    compound  reported_property  meas_value
 0        O=C(O)C1CCNCC1 [Isonipecotic acid]         Raw Signal       51826
 1  O=c1[nH]c2ccccc2n1CCCN1CCN(C(c2ccccc2)c2ccccc2)CC1 [Oxatomide]         Raw Signal       55062
 2  NC(=O)COc1c(F)cc(SCCNS(=O)(=O)c2ccccc2)cc1F         Raw Signal       52796
 3  CN(C)CCCN1c2ccccc2CCc2ccccc21 [Imipramine hydrochloride]         Raw Signal       53704
 4  O=C(CCNNC(=O)c1ccncc1)NCc1ccccc1 [Nialamide]         Raw Signal       52793
 5  N=c1ccn2c(n1)O[C@H]1[C@H](O)[C@@H](CO)O[C@H]12 [Ancitabine hydrochloride]         Raw Signal       57428
 6  COc1ccc2c(c1)c(CC(=O)N1CCOCC1)c(C)n2C(=O)c1ccc(Cl)cc1 [Indomethacin morpholinylamide]         Raw Signal       52785
 7  Cc1cnc(NC(=O)C2=C(O)c3ccccc3S(=O)(=O)N2C)s1 [Meloxicam sodium]         Raw Signal       55155
 8  CC(Cc1ccc(O)cc1)NCC(O)c1cc(O)cc(O)c1 (stereo not drawn) [Fenoterol hydrobromide]         Raw Signal       56195
 9  CC(C)(C)c1cc(C=C(C#N)C#N)cc(C(C)(C)C)c1O [Tyrphostin A9]         Raw Signal       55633
10  CN(C)c1nc(N)c(C(=O)NC(=N)N)nc1Cl [5-(N,N-Dimethyl)amiloride hydrochloride]         Raw Signal       56769
11  CC1(C)CCC2=C(O1)c1ccccc1C(=O)C2=O [beta-Lapachone]         Raw Signal       54181
12  OC[C@H]1O[C@@H](n2cnc3c(Nc4ccccc4)ncnc32)[C@H](O)[C@@H]1O [N6-Phenyladenosine]         Raw Signal       55025
13  N#C/C(=C\c1ccc(O)c(O)c1)C(=O)Nc1ccccc1 [Tyrphostin AG 494]         Raw Signal       54872
14  Br.Cc1o[nH]c(=O)c1CC(N)C(=O)O (racemic) [(±)-AMPA hydrobromide]         Raw Signal       54656
15  C=C[C@H]1C[N@@]2CC[C@H]1C[C@H]2[C@H](O)c1ccnc2ccc(OC)cc12 [Quinine sulfate]         Raw Signal       53765
16      NC(=O)c1cccc(N)c1 [3-aminobenzamide]         Raw Signal       56496
17  Br.Oc1ccc(C2CNCc3sccc32)cc1O (stereo not drawn) [SKF 89626]         Raw Signal       56262
